Quick reference: IC50 of pseudo virus neutralization H7N9 AH/13 of the listed items.
MEASURED_TARGET: H7 A/Anhui/1-BALF_RG17/2013 HA on H7N9 AH/13 pseudo virus (influenza A virus A/Anhui/1-BALF_RG17/2013 (H7N9))
ASSAY_DETAILS: cell-based or functional assay

In the examples that follow, each entry is paired with its recorded IC50 of pseudo virus neutralization H7N9 AH/13.
binder="S48 (antibody, V domains shown) VH: EVQLVESGGGLVQPGGSLRLSCAVSGFTIGDGSIHWVRQAPGKGLEWVASIGPYGGSTYYADSVKGRFTISADTSKNTAYLQMNSLRAEDTAVYYCARFHYGYWNNMDYWGQGTLVTVSS VL: DIQMTQSPSSLSASVGDRVTITCRASQDVGWWVAWYQQKPGKAPKLLIYGTRWLYSGVPSRFSGSGSGTDFTLTISSVQPEDFATYYCQQYYSGPITFGQGTKVEIKR" test_result="> 200 µg/mL"
binder="S45 (antibody, V domains shown) VH: EVQLVESGGGLVQPGGSLRLSCAASGFTINGSSIHWVRQAPGKGLEWVAYIGPFGGSTYYADSVKGRFTISADTSKNTAYLQMNSLRAEDTAVYYCARFWHGYNLYMDYWGQGTLVTVSS VL: DIQMTQSPSSLSASVGDRVTITCRASQDVGWWVAWYQQKPGKAPKLLIYGARFLYSGVPSRFSGSGSGTDFTLTISSLQPEDFATYYCQQYFNGPLTFGQGTKVEIKR" test_result="> 200 µg/mL"

Now examine the next entry.
// query IC50 of pseudo virus neutralization H7N9 AH/13 value for entry P38 (antibody, V domains shown) VH: EVQLVESGGGLVQPGGSLRLSCAASGFTINDGGIHWVRQAPGKGLEWVAFIGPYGGSTFYADSVKGRFTISADTSKNTAYLQMNSLRAEDTAVYYCAGFIGDYSSYHGVMDYWGQGTLVTVSS VL: DIQMTQSPSSLSASVGDRVTITCRASQDVWGYVAWYQQKPGKAPKLLISWPGGLYSGVPSRFSGSGSGTDFTLTISSLQPEDFATYYCQQYSSFPLTFGQGTKVEIKR
> 200 µg/mL
